- Test system: A549b cells
- assay.remarks: Anti-proliferative activity of a drug on A549b cells pretreated with anti-BRCA2 OLIGO/siRNA
- Assay type: cell-based
- measurement.context: Homo sapiens, in the presence of BR1 (pretreatment); curves conservatively extrapolated; read-out: concentration of olaparib required to inhibit proliferation of A549b cells by 50% (IC50)
- Experimental: OLIGOs were introduced into cells with the use of Lipofectamine 2000 (LFA2K) (Invitrogen, Burlington, Ontario, Canada). OLIGOs were mixed with LFA2K at a ratio of 0.2 μg/ml per 10 nM OLIGO. […] These experiments were carried out essentially as described in Example 2, after which one volume of medium was added, and cells were further incubated for 20 hours. siRNA-containing medium was removed and replaced with fresh medium. […] Cells were incubated for 4 days, at which time cell number was counted. […]
recorded.endpoint: IC50

[ask] Value lookup for IC50; key = O=C(c1cc(Cc2n[nH]c(=O)c3ccccc23)ccc1F)N1CCN(C(=O)C2CC2)CC1 [olaparib]
[reply] ~50 nM
